Measured DC50, listed per entry.
- Subject Of Test: TYK2 (Homo sapiens, UniProt P29597)
- Sequence (P29597 whole entry): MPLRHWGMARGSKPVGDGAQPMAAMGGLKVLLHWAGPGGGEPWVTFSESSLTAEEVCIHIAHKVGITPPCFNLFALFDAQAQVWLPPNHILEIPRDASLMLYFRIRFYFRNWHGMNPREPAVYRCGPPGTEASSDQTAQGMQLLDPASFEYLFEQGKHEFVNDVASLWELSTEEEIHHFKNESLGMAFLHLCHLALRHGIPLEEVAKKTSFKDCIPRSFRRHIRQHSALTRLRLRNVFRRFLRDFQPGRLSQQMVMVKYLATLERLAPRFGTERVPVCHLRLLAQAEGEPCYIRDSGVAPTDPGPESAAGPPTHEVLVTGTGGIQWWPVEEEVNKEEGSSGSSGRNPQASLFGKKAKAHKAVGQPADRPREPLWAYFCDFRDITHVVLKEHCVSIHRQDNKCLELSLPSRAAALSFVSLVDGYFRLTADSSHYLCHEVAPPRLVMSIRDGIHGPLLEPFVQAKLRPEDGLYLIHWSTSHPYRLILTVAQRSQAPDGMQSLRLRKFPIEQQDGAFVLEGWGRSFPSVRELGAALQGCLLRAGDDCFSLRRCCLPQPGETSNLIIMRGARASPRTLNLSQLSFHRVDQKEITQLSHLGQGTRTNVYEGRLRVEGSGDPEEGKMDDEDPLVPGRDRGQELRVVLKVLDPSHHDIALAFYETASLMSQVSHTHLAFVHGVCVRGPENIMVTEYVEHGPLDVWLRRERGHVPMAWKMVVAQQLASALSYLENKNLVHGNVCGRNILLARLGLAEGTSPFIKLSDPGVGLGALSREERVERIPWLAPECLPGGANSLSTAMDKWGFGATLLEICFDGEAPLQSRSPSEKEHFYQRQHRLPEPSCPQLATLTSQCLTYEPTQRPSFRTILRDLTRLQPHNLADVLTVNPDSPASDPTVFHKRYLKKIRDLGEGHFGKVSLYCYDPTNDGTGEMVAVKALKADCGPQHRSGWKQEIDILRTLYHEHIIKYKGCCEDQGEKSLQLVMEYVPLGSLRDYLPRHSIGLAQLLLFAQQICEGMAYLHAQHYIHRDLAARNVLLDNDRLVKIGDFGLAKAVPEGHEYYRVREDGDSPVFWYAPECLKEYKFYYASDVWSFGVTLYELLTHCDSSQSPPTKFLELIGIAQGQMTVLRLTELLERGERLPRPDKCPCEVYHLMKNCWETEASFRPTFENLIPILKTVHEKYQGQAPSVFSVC
- Measurement Description: TYK2 degradation MSD assay in human PBMC cells
- Type: cell-based
- Parameters: endogenous in cells; host or cells: human PBMC
- Condition Set: 4 to 24 hours incubation, read-out: TYK2 MSD DC50 rating in human PBMC

CNc1cc(Nc2cccn(-c3ccc(C(=O)N4CC(CN5CCC(c6cccc7c6n(C)c(=O)n7C6CCC(=O)NC6=O)CC5)C4)cn3)c2=O)nn2c(C(=O)N[C@@H]3C[C@@H]3F)cnc12 (some centres unmarked) [Example K450] :: > 100 nM
CNC(=O)c1cnc(Nc2ccc(CN3CC(c4cccc5c4n(C)c(=O)n5C4CCC(=O)NC4=O)C3)cn2)cc1Nc1cccc(-c2ncc(F)cn2)c1OC (centres unmarked) [Example K198] :: < 1 nM
CNc1cc(Nc2cccc(CN3CC4(CCN(c5ccc6c(c5)n(C)c(=O)n6C5CCC(=O)NC5=O)CC4)C3)c2)nn2c(C(=O)NC3CC3)cnc12 (centres unmarked) [Example K614] :: > 100 nM

The value of DC50 measured for the compound CNc1cc(Nc2cccn(-c3cccc(C(=O)NCCCCCCc4ccc5c(c4)n(C)c(=O)n5C4CCC(=O)NC4=O)c3)c2=O)nn2c(C(=O)N[C@@H]3C[C@@H]3F)cnc12 (some centres unmarked) [Example K221] turned out to be > 100 nM

The value of DC50 measured for the compound CNc1cc(Nc2cccn(-c3ccc(C(=O)N(C)C4CCN(Cc5cccc6c5n(C)c(=O)n6C5CCC(=O)NC5=O)CC4)cn3)c2=O)nn2c(C(=O)N[C@@H]3C[C@@H]3F)cnc12 (some centres unmarked) [Example K279] turned out to be < 1 nM
